Molecular target: T1, DcR3 binding to membrane LIGHT (EL4-LIGHT cells) (Homo sapiens, UniProt O43557)
T1 construct: expressed in transfected cells; host or cells: EL4 mouse lymphoma cells, stably transduced
T1 sequence (O43557 whole entry): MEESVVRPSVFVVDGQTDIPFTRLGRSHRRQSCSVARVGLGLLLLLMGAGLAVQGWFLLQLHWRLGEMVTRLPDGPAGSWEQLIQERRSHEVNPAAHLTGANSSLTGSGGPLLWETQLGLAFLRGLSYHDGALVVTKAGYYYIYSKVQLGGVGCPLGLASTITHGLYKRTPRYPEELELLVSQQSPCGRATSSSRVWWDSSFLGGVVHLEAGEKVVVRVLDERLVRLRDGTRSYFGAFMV
Assay: Competition binding of anti-membrane LIGHT antibodies with DcR3-His on EL4-LIGHT cells
Settings: mAb at up to 100 nM
measured parameter: Inhibition of DcR3 binding to membrane LIGHT

molecule: 3B04: parental mouse anti-membrane LIGHT antibody, VL SEQ ID NO 1, VH SEQ ID NO 5; tested as chimeric human IgG4 mAb (antibody, listed as Homo sapiens, V domains shown) VH: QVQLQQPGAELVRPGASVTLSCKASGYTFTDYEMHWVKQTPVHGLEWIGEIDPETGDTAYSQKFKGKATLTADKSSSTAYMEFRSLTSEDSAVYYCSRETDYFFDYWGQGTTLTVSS VL: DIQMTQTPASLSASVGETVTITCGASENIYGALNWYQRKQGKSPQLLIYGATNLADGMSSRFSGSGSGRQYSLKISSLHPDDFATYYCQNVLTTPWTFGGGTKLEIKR
result value: only partially inhibit
--
molecule: 2E08: parental anti-membrane LIGHT antibody, VL SEQ ID NO 81, VH SEQ ID NO 85; chimeric IgG4 mAb (antibody, listed as Homo sapiens, V domains shown) VH: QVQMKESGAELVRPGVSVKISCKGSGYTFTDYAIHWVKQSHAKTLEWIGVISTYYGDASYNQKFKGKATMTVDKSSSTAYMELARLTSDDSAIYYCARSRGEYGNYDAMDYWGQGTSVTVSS VL: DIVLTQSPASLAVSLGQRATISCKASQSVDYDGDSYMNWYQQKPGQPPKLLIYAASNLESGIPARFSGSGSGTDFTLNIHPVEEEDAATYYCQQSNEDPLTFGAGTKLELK
result value: only partially inhibit
--
molecule: 3C10: parental anti-membrane LIGHT antibody, VL SEQ ID NO 89, VH SEQ ID NO 93; chimeric IgG4 mAb (antibody, listed as Homo sapiens, V domains shown) VH: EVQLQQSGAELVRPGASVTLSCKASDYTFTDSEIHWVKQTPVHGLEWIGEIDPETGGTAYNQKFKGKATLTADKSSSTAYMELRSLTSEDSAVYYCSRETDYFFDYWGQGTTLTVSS VL: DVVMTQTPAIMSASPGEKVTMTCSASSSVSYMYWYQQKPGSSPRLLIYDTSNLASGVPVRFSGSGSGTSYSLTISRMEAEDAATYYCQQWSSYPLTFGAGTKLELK
result value: only partially inhibit

The values you see were collected from patent US11312781B2.
